Reference source: patent US11339130B1

Molecular target: human calpain 9 (Homo sapiens, UniProt O14815)
Construct: human calpain 9, residues 27-347, was over expressed in E. coli BL21 (DE3); hexa-histidine (N); made in house; host or cells: E. coli BL21 (DE3)
Assay: Calpain binding: crystal structure interaction distances, human calpain 9
Conditions: polar interactions with human calpain 9
Some molecules, each annotated with its measured Interaction Distances R^13-Cys97.
Give the number; Å is assumed, so skip it.

Use the examples below as a reference point.
CCCC[C@H](NC(=O)c1oc(C)nc1-c1ccccc1)C(=O)C(N)=O ... 3.1
NC(=O)C(=O)[C@H](Cc1ccccc1)NC(=O)c1snnc1-c1ccccc1 ... 3.0
NC(=O)C(=O)[C@H](Cc1ccccc1)NC(=O)c1nsnc1-c1ccccc1 ... 2.9

Here is the next item to consider.
-- ask GET /values?readout=Interaction Distances R^13-Cys97&item= Cn1cc(C(=O)N[C@@H](Cc2ccccc2)C(=O)C(N)=O)c(-c2ccccc2)n1
-- reply 2.9

* * *

Target: Human Calpain 9/NS1 (Homo sapiens, UniProt O14815)
Sequence (O14815 1-690): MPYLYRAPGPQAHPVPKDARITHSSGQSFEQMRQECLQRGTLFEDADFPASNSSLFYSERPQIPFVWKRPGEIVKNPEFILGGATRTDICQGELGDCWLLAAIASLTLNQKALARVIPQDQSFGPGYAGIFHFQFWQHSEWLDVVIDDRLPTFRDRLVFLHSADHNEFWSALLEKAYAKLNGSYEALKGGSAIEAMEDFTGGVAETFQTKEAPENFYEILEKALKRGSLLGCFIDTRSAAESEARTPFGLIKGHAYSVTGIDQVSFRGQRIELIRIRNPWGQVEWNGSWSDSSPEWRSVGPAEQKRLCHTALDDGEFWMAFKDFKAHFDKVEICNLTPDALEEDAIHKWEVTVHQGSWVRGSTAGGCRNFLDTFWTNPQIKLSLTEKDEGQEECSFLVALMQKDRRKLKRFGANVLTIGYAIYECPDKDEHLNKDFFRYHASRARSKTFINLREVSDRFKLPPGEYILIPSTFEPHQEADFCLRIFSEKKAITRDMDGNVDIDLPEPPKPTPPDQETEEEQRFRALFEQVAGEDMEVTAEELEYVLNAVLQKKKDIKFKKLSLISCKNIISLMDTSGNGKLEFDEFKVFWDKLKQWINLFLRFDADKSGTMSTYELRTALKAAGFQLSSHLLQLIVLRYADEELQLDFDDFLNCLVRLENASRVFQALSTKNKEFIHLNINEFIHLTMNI
Sequence (P04632 1-268 partner): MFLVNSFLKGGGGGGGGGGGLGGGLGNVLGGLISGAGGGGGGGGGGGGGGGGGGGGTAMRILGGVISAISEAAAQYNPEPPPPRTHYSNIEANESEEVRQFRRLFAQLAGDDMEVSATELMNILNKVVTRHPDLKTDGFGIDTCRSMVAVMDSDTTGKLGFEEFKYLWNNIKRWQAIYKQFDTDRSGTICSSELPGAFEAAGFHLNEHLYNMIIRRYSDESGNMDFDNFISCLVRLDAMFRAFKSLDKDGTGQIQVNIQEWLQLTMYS
Test: Calpain inhibition continuous fluorescence (FRET) assay, Human Calpain 9/NS1
Format: biochemical
Settings: read-out: Human Calpain 9/NS1 IC50
pIC50: −log10 of the molar value.
Experimental readout: pIC50

Use the examples below as a reference point.
NC(=O)C(=O)C(Cc1ccccc1)NC(=O)c1cn(C(F)F)nc1-c1cccc2c1OCCO2 (stereo not drawn) ... > 5.52
CCn1ncc(Cl)c1C(=O)N[C@@H](Cc1ccccc1)C(=O)C(N)=O ... > 5.52
Cc1cc(C)cc(-c2nn(C(F)F)cc2C(=O)NC(Cc2ccccc2)C(=O)C(N)=O)c1 (stereo not drawn) ... > 5.52

-- ask GET /values?readout=pIC50&item= Cc1cccc(-c2nsnc2C(=O)NC(Cc2ccccc2)C(=O)C(N)=O)c1F (stereo not drawn)
-- reply > 5.52

-- ask GET /values?readout=pIC50&item= Cc1cc(C(=O)NC(Cc2ccccc2)C(=O)C(N)=O)n(-c2ncccc2F)n1 (stereo not drawn)
-- reply > 5.52

-- ask GET /values?readout=pIC50&item= Cc1c(C(=O)NC(Cc2ccccc2)C(=O)C(N)=O)c(-c2ccccc2)nn1C (stereo not drawn)
-- reply > 5.52

-- ask GET /values?readout=pIC50&item= NC(=O)C(=O)C(Cc1ccccc1)NC(=O)c1cn(C(F)F)nc1-c1cccc2ccccc12 (stereo not drawn)
-- reply > 5.52

-- ask GET /values?readout=pIC50&item= NC(=O)C(=O)C(Cc1ccccc1)NC(=O)C1CCCN1c1ccccc1 (stereo not drawn)
-- reply > 5.52

-- ask GET /values?readout=pIC50&item= NC(=O)C(=O)[C@H](Cc1ccccc1)NC(=O)[C@@H]1CCCN1c1ccccc1
-- reply > 5.52

-- ask GET /values?readout=pIC50&item= O=C[C@H](Cc1ccccc1)NC(=O)c1cn(C2CC2)nc1-c1ccccc1
-- reply > 5.52

-- ask GET /values?readout=pIC50&item= Cc1ncc(C(=O)NC(Cc2ccccc2)C(=O)C(N)=O)n1-c1ccccc1 (stereo not drawn)
-- reply > 5.52

-- ask GET /values?readout=pIC50&item= NC(=O)C(=O)C(Cc1ccccc1)NC(=O)c1cc(C(F)(F)F)nn1-c1ncccn1 (stereo not drawn)
-- reply > 5.52

* * *

Target: Human Calpain 2/NS1 (Homo sapiens)
Assay: Calpain inhibition continuous fluorescence (FRET) assay, Human Calpain 2/NS1
Assay type: biochemical
Conditions: read-out: Human Calpain 2/NS1 IC50
pIC50: −log10 of the molar value.
Experimental readout: pIC50

Use the examples below as a reference point.
CC#Cc1nn(-c2ccccc2)cc1C(=O)NC(Cc1ccccc1)C(=O)C(N)=O (stereo not shown) ... < 5.00
Cl.Cn1cc(C(=O)NC(Cc2ccccc2)C(=O)C(N)=O)c(-c2cccc(F)c2)n1 (stereo not shown) [Compound 485, hydrochloride] ... > 5.52
CC(C)CC(NC(=O)c1nsnc1-c1ccccc1)C(=O)C(N)=O (stereo not shown) ... > 5.52

Here is the next item to consider.
-- ask GET /values?readout=pIC50&item= Cc1nc(-c2cccc(F)c2F)c(C(=O)NC(Cc2ccccc2)C(=O)C(N)=O)o1 (stereo not shown)
-- reply > 5.52

* * *

Target: human calpain 9 (Homo sapiens, UniProt O14815)
Construct: human calpain 9, residues 27-347, was over expressed in E. coli BL21 (DE3); hexa-histidine (N); made in house; host or cells: E. coli BL21 (DE3)
Assay: Calpain binding: crystal structure interaction distances, human calpain 9
Conditions: polar interactions with human calpain 9
Experimental readout: Interaction Distances R^13-Gln91 (Å)
Give the number; Å is assumed, so skip it.

Cn1cc(C(=O)N[C@@H](Cc2ccccc2)C(=O)C(N)=O)c(-c2ccccc2)n1 [Compound 32] ... 2.8

-- ask GET /values?readout=Interaction Distances R^13-Gln91&item= NC(=O)C(=O)[C@H](Cc1ccccc1)NC(=O)c1snnc1-c1ccccc1 [Compound 44]
-- reply 2.8

-- ask GET /values?readout=Interaction Distances R^13-Gln91&item= CCCC[C@H](NC(=O)c1oc(C)nc1-c1ccccc1)C(=O)C(N)=O [Compound 265]
-- reply 2.9

-- ask GET /values?readout=Interaction Distances R^13-Gln91&item= NC(=O)C(=O)[C@H](Cc1ccccc1)NC(=O)c1nsnc1-c1ccccc1 [Compound 72]
-- reply 2.8

* * *

Biological target: Human Calpain 1/NS1 (Homo sapiens)
Sequence (P07384 whole entry, one chain of several): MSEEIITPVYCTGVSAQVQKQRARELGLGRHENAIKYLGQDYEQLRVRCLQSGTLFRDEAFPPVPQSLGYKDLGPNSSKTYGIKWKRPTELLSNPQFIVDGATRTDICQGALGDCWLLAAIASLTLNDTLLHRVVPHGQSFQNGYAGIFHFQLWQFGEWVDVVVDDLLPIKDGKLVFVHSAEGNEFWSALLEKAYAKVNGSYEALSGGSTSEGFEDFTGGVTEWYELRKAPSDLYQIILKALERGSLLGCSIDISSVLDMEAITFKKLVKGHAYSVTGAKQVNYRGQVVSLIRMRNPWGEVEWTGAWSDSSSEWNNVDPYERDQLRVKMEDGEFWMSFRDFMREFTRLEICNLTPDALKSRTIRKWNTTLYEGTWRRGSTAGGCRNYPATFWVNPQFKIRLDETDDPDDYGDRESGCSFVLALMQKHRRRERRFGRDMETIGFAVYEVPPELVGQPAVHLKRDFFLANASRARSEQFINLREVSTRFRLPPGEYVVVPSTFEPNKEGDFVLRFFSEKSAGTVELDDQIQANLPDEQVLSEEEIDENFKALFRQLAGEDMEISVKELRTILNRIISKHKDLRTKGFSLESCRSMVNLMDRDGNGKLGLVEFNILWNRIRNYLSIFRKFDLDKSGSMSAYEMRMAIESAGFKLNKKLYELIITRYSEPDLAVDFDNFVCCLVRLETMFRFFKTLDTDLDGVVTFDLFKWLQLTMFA
Assay: Calpain inhibition continuous fluorescence (FRET) assay, Human Calpain 1/NS1
Format: biochemical
Conditions: Column A; read-out: Human Calpain 1/NS1 IC50
pIC50: −log10 of the molar value.
Some molecules, each annotated with its measured pIC50.

Use the examples below as a reference point.
COc1cccc(-n2nc(C)cc2C(=O)N[C@@H](Cc2ccccc2)C(=O)C(N)=O)n1 ... > 5.52
Cn1cnc(C(=O)N[C@@H](Cc2ccccc2)C(=O)C(N)=O)c1-c1ccccc1 ... 5.00 to 5.52
CC(C)(C)c1cc(C(=O)N[C@@H](Cc2ccccc2)C(=O)C(N)=O)n(-c2ccccc2)n1 ... 5.00 to 5.52
CC(C)c1cccc(-c2nn(C)cc2C(=O)N[C@@H](Cc2ccccc2)C(=O)C(N)=O)c1 ... > 5.52
Cn1cc(C(=O)N[C@@H](Cc2ccccc2)C(=O)C(N)=O)c(-c2ccncn2)n1 ... > 5.52
NC(=O)C(=O)[C@H](Cc1ccccc1)NC(=O)c1scnc1-n1cc2ccccc2n1 ... > 5.52
NC(=O)C(=O)[C@H](Cc1ccccc1)NC(=O)c1cn(C#Cc2ccccc2)c2ccccc12 ... < 5.00

-- ask GET /values?readout=pIC50&item= Cn1cc(C(=O)N[C@@H](Cc2ccccc2)C(=O)C(N)=O)c(-c2ccncc2)n1
-- reply > 5.52

* * *

Molecular target: Human Calpain 2/NS1 (Homo sapiens, UniProt P17655)
Sequence (P17655 whole entry, one chain of several): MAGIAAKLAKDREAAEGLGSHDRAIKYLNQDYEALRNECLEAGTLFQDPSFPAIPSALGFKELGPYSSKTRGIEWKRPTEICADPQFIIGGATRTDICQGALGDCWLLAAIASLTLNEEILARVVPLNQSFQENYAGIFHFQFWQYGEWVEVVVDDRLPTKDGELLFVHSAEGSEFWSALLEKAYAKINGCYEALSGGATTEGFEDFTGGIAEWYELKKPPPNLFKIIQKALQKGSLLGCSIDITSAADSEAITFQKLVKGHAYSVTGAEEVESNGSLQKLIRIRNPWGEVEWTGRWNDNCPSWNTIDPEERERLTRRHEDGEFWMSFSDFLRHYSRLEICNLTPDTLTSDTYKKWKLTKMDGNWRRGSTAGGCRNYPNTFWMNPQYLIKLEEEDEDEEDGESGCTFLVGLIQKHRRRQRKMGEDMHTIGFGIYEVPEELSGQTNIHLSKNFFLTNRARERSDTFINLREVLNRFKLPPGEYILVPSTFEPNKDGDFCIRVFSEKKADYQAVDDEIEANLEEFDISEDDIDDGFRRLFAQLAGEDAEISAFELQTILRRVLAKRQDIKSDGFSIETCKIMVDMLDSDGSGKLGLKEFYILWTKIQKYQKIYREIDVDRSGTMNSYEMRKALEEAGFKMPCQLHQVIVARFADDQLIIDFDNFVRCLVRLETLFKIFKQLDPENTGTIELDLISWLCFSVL
Test: Calpain inhibition continuous fluorescence (FRET) assay, Human Calpain 2/NS1
Format: biochemical
Details: Column B; read-out: Human Calpain 2/NS1 IC50
Experimental readout: IC50

Cc1cc(C(=O)N[C@@H](Cc2ccccc2)C(=O)C(N)=O)n(-c2nc3ccccc3n2C)n1 [Compound 294] ... 3 to 10 µM

-- ask GET /values?readout=IC50&item= Cc1cc(C(=O)N[C@@H](Cc2ccccc2)C(=O)C(N)=O)n(-c2cccc(COCc3ccccc3)c2)n1 [Compound 230]
-- reply < 3 µM

-- ask GET /values?readout=IC50&item= Cc1cc(C(=O)N[C@@H](Cc2ccccc2)C(=O)C(N)=O)n(-c2ccc(-c3ccccc3)nn2)n1 [Compound 233]
-- reply < 3 µM

-- ask GET /values?readout=IC50&item= NC(=O)C(=O)[C@H](Cc1ccccc1)NC(=O)c1snnc1-c1ccccc1 [Compound 44]
-- reply < 3 µM
